# systemName: Dual specificity protein phosphatase 6 (Rattus norvegicus)
# protocolText: MKP-3 phosphatase inhibitors, primary screen, biochemical, rat enzyme, in vitro (AID 425);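 also: plate controls were vehicle for no effect and reference inhibitor for full effect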
# conditionNotes: recombinant MKP-3 phosphatase activity, fluorescence; at 20 µM
About 190 (0.17%) of roughly 110,000 compounds were called active. Rule as the data show it: active = inhibition above about 50%; inactive = the rest. The list comes from a sample in which actives are over-represented; it also holds close analogues and randomly drawn compounds. Measured potencies and affinities stand elsewhere.
Give your call using only these classes: active, inactive

Take a look at these entries with their results.
>>> df
                                   molecule  assignedclass
0  COc1ccc(/C=C2/NC(=O)/C(=C/c3ccc(OC)cc3)C2=O)cc1       inactive
1  O=[N+]([O-])c1cccc2c1NC(c1ccccc1F)C1CC=CC21 (stereo not given)       inactive
2  CN1C(=O)/C(=C2\SC(=S)N(CC(=O)O)C2=O)c2ccccc21       inactive
3  CCOC(=O)/C=C/CSc1nc2sc3c(c2c(=O)[nH]1)CCCC3       inactive

What was the test verdict on Cc1cccc(C=Nc2ccc(-c3nc4ccc(C)cc4s3)cc2)c1 ? inactive

What was the test verdict on O=C(O)c1cccc(N2C(=O)c3ccc4c5c(ccc(c35)C2=O)CC4)c1 ? active

###

# systemName: Dual specificity protein phosphatase 6 (Rattus norvegicus)
# protocolText: MKP-3 phosphatase inhibitors, primary screen, biochemical, rat enzyme, in vitro (AID 425);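 also: plate controls were vehicle for no effect and reference inhibitor for full effect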
# conditionNotes: recombinant MKP-3 phosphatase activity, fluorescence; at 20 µM; hits give high values
About 190 (0.17%) of roughly 110,000 compounds were called active. Many of the other results were omitted from the sample, so actives are more common in it than they were. Results with a measured potency or affinity are listed apart.
Exercise: state measured inhibition for each of the compounds provided.
One number for each entry, in %.

# annotated cases, reported inhibition shown
>>> print(df.to_string())
                                   compound                                systemname  measvalue
0  O=C(Cn1nc(Cc2cccnc2)c2ccccc2c1=O)Nc1ccc2c(c1)OCO2  Dual specificity protein phosphatase 6 (Rattus norvegicus)       -0.1
1  Cc1ccc(S(=O)(=O)/N=C2\C=CC(=O)C=C2Cl)cc1  Dual specificity protein phosphatase 6 (Rattus norvegicus)       -0.1
2  CC(C)(C)c1cnnn1-c1ccc(NC(=O)c2ccc3c(c2)OCO3)cc1  Dual specificity protein phosphatase 6 (Rattus norvegicus)       -6.9
3  Cc1ccc(S(=O)(=O)/N=C2/C=C(Sc3nnnn3-c3ccccc3)C(=O)c3ccccc32)cc1  Dual specificity protein phosphatase 6 (Rattus norvegicus)       27.3
4   CC(=O)Nc1ccc(S(=O)(=O)Nc2cc(C)ccc2C)cc1  Dual specificity protein phosphatase 6 (Rattus norvegicus)        0.4
5  CCN(CC)c1ccc(/C=C2/SC(=O)N(CNc3ccc(OC)c(Cl)c3)C2=O)cc1  Dual specificity protein phosphatase 6 (Rattus norvegicus)        2.6

Lab note: each compound below needs its inhibition filled in.
1. COC(=O)C(C(=O)OC)C1=C/C(=N/S(=O)(=O)c2ccc(C)cc2)c2ccccc2C1=O
2. Cc1ccc(S(=O)(=O)/N=C2/C=C(S(=O)(=O)c3ccc(C)cc3)C(=O)c3ccccc32)cc1
3. Cc1cc(F)ccc1S(=O)(=O)Nc1c(C)n(C)n(-c2ccccc2)c1=O

1.7
20.6
6.3

Lab note: each compound below needs its inhibition filled in.
1. Cc1ccc(OCC(=O)N(Cc2ccc(N(C)C)cc2)C2CCS(=O)(=O)C2)cc1 (stereo not given)
2. O=C(NCCCn1ccnc1)c1cnn2c(C(F)(F)F)cc(-c3ccc(Br)cc3)nc12

-8.2
2.4

Lab note: each compound below needs its inhibition filled in.
1. O=C1C(N2CCOCC2)=C/C(=N\S(=O)(=O)c2ccc(Cl)cc2)c2ccccc21
2. CCOc1cc(C(=O)Nc2ccc(Br)cc2F)cc(OCC)c1OCC
3. CCOC(=O)C1(C)NC(c2cc(OC)c(OC)c(OC)c2)C2C(=O)N(CC)C(=O)C21 (stereo not given)
4. Cc1ccc(S(=O)(=O)N(C)CCCC(=O)N2CCN(C=O)CC2)cc1

[5.9, 5.8, 4.9, -5.2]
